# protocolDescription: Half-life of compound in rats following intravenous dose of 50 mg/kg
# experimentalSetup: rat, in vivo
property: half-life (h)
Supply the numeric figure in h, leaving out any unit text.

Given the entry N#Cc1ccc2c(c1)CN(S(=O)(=O)c1cccs1)[C@H](Cc1ccccc1)CN2Cc1cnc[nH]1 , report its measured half-life.
2.4

----------
Kindly supply the reported IC50 values for the records listed here.
# assaySystem: Protein farnesyltransferase (Homo sapiens, UniProt P49354+P49356)
# protocolDescription: Inhibition of purified recombinant human farnesyltransferase (FT)
Give the value, in units of nM, as a plain number.

So what does the record say about IC50 for CC(=O)N1Cc2cc(C#N)ccc2N(Cc2c[nH]cn2)C[C@H]1Cc1ccccc1 ?
8.75

Please report the recorded IC50 for CS(=O)(=O)N1Cc2cc(-c3ccccc3)ccc2N(Cc2cnc[nH]2)CC1Cc1ccccc1 (centres undefined) .
54.5

Can you share its IC50? I mean this compound: CS(=O)(=O)N1Cc2cc(-c3ccccc3)ccc2N(Cc2c[nH]cn2)C[C@H]1Cc1cccnc1
5.95

Requested field: IC50. Item: CC(=O)N1Cc2cc(Br)ccc2N(Cc2c[nH]cn2)CC1Cc1ccccc1 (centres undefined)
60

----------
# assaySystem: Protein farnesyltransferase (Rattus norvegicus) (UniProt Q04631+Q02293)
# protocolDescription: Percent phenotypic reversion of H-ras transformed Rat-1 cells at 1 uM
# Type: functional, cell-based
property: Reversion (%)
Answer with a number only, understood to be in %.

Fill in the blank: the reported Reversion of CS(=O)(=O)N1Cc2cc(Br)ccc2N(Cc2c[nH]cn2)CC1CNC(=O)c1ccccc1 (configuration not stated) is ____.
0

# input molecule: CS(=O)(=O)N1Cc2cc(Br)ccc2N(Cc2c[nH]cn2)C[C@H]1Cc1ccccc1 ; wanted: its Reversion
70

Recorded Reversion of CS(=O)(=O)N1Cc2cc(-c3ccccc3)ccc2N(Cc2c[nH]cn2)CC1Cc1ccccc1 (configuration not stated) , please.
70

I'd like to know its Reversion. The molecule in question is CC(=O)N1Cc2cc(Br)ccc2N(Cc2c[nH]cn2)CC1Cc1cccc2ccccc12 (configuration not stated)
5

// Reversion lookup, key: CN(C)C(=O)N1Cc2cc(C#N)ccc2N(Cc2c[nH]cn2)C[C@H]1Cc1ccccc1
40

What value of Reversion has been recorded for this entry: CC(=O)N1Cc2cc(Br)ccc2N(Cc2c[nH]cn2)CC1Cc1ccccc1 (configuration not stated)
30

Param item = CS(=O)(=O)N1Cc2cc(Br)ccc2N(Cc2c[nH]cn2)CC1Cc1ccccc1Cl (configuration not stated) ; retrieve measured Reversion.
70

Which Reversion is listed for CCOC(=O)N1Cc2cc(C#N)ccc2N(Cc2c[nH]cn2)C[C@H]1Cc1ccccc1 ?
50

Reported Reversion for CS(=O)(=O)N1Cc2cc(-c3cccnc3)ccc2N(Cc2c[nH]cn2)CC1Cc1ccccc1 (configuration not stated) : what is it?
10

Tell me the measured Reversion of CS(=O)(=O)N1Cc2cc(Br)ccc2N(Cc2c[nH]cn2)CC1CCc1ccccc1 (configuration not stated) , please.
70

Give its Reversion value. Item: CS(=O)(=O)N1Cc2cc(Br)ccc2N(Cc2c[nH]cn2)CC1Cc1ccccc1 (configuration not stated)
80

Which value of Reversion has been reported for COc1ccc(CC2CN(Cc3c[nH]cn3)c3ccc(Br)cc3CN2S(C)(=O)=O)cc1 (configuration not stated) in the records?
0

----------
# protocolDescription: in vivo
# experimentalSetup: rat, iv, 50 mg/kg
# Description: Volume of distribution (Vss) in rats following intravenous dose of 50 mg/kg
property: Vd (L/kg)
Numbers only; they are read as L/kg.

Reported Vd, compound N#Cc1ccc2c(c1)CN(S(=O)(=O)c1cccs1)[C@H](Cc1ccccc1)CN2Cc1cnc[nH]1 : ____
1.4

----------
# protocolDescription: Clearance in rats following intravenous dose of 50 mg/kg
# experimentalSetup: rat, in vivo
property: clearance (mL/min/kg)
// units = mL/min/kg; emit number, no label

Quick one: clearance for N#Cc1ccc2c(c1)CN(S(=O)(=O)c1cccs1)[C@H](Cc1ccccc1)CN2Cc1cnc[nH]1 ?
5.7

----------
# protocolDescription: in vivo
# experimentalSetup: rat, po, 50 mg/kg
# Description: Oral bioavailability observed in rats at an oral dose of 50 mg/kg
property: bioavailability (%)
Answer with a number only, understood to be in %.

# bioavailability lookup, item N#Cc1ccc2c(c1)CN(S(=O)(=O)c1cccs1)[C@H](Cc1ccccc1)CN2Cc1cnc[nH]1 [BMS-214662]
56

----------
# assaySystem: Protein farnesyltransferase (Homo sapiens, UniProt P49354+P49356)
# protocolDescription: Inhibition of purified recombinant human farnesyltransferase (FT)
property: log10(IC50) (log10 of the value in nM)
A value of 2 here means IC50 of 100 in nM, since values are log10.

Any idea what log10(IC50) came out for CS(=O)(=O)N1Cc2cc(Br)ccc2N(Cc2cnc[nH]2)C[C@H]1Cc1ccccc1 on Protein farnesyltransferase (Homo sapiens, UniProt P49354+P49356)?
1.03

Return log10(IC50) measured with Protein farnesyltransferase (Homo sapiens, UniProt P49354+P49356) given this compound: CS(=O)(=O)N1Cc2cc(Br)ccc2N(Cc2cnc[nH]2)CC1Cc1ccccc1 (centres undefined)
1.48

API: value(readout= log10(IC50), system= Protein farnesyltransferase (Homo sapiens, UniProt P49354+P49356), query= CS(=O)(=O)N1Cc2cc(C#N)ccc2N(Cc2c[nH]cn2)C[C@H]1Cc1ccccc1 )
0.48

Could you share what log10(IC50) was measured for CS(=O)(=O)N1Cc2cc(Br)ccc2N(Cc2cnc[nH]2)C[C@@H]1Cc1ccccc1 , tested on Protein farnesyltransferase (Homo sapiens, UniProt P49354+P49356)?
2.64

Report log10(IC50) for CS(=O)(=O)N1Cc2cc(-c3ccccc3)ccc2N(Cc2cnc[nH]2)C[C@H]1Cc1ccncc1 tested on Protein farnesyltransferase (Homo sapiens, UniProt P49354+P49356).
2.58

Lookup: log10(IC50) / Protein farnesyltransferase (Homo sapiens, UniProt P49354+P49356) / CN(C)S(=O)(=O)N1Cc2cc(C#N)ccc2N(Cc2c[nH]cn2)C[C@H]1Cc1ccccc1
0.45

API: value(readout=log10(IC50), system=Protein farnesyltransferase (Homo sapiens, UniProt P49354+P49356)) for record CS(=O)(=O)N1Cc2cc(Br)ccc2N(Cc2cnc[nH]2)CC1CNC(=O)c1ccccc1 (centres undefined)
1.93

Observed log10(IC50) on Protein farnesyltransferase (Homo sapiens, UniProt P49354+P49356) for CS(=O)(=O)N1Cc2cc(Br)ccc2N(Cc2c[nH]cn2)CC1Cc1ccccc1Cl (centres undefined) , please.
1.26

Write down the reported log10(IC50) of N#Cc1ccc2c(c1)CN(S(=O)(=O)c1ccccc1)[C@H](Cc1ccccc1)CN2Cc1cnc[nH]1 , test system: Protein farnesyltransferase (Homo sapiens, UniProt P49354+P49356).
0.25

Look up log10(IC50) with Protein farnesyltransferase (Homo sapiens, UniProt P49354+P49356) for this compound: O=C(c1cccc2ccccc12)N1CCN(Cc2cnc[nH]2)c2ccc(Br)cc2C1
2.36

Query log10(IC50) on Protein farnesyltransferase (Homo sapiens, UniProt P49354+P49356) for COc1ccc(CC2CN(Cc3c[nH]cn3)c3ccc(Br)cc3CN2S(C)(=O)=O)cc1 (centres undefined)
2.00

// map CC(=O)N1Cc2ccccc2N(Cc2c[nH]cn2)CC1Cc1ccccc1 (centres undefined) to recorded log10(IC50) (system: Protein farnesyltransferase (Homo sapiens, UniProt P49354+P49356))
3.11

Please provide the recorded log10(IC50) for CN(C)CCS(=O)(=O)N1Cc2cc(C#N)ccc2N(Cc2c[nH]cn2)C[C@H]1Cc1ccccc1 , tested on Protein farnesyltransferase (Homo sapiens, UniProt P49354+P49356).
0.18

Which log10(IC50) is reported with Protein farnesyltransferase (Homo sapiens, UniProt P49354+P49356) for this entry: CS(=O)(=O)N1Cc2cc(-c3cccnc3)ccc2N(Cc2cnc[nH]2)CC1Cc1ccccc1 (centres undefined) ?
0.90

Can you look up log10(IC50) on Protein farnesyltransferase (Homo sapiens, UniProt P49354+P49356) for CS(=O)(=O)N1Cc2cc(Br)ccc2N(Cc2cnc[nH]2)C[C@H]1CC1CCCCC1 ?
1.37

Please state recorded log10(IC50) (tested on Protein farnesyltransferase (Homo sapiens, UniProt P49354+P49356)) of CCOC(=O)N1Cc2cc(C#N)ccc2N(Cc2c[nH]cn2)C[C@H]1Cc1ccccc1
1.34

Request body: readout log10(IC50), system Protein farnesyltransferase (Homo sapiens, UniProt P49354+P49356), query CC1CN(Cc2c[nH]cn2)c2ccccc2CN1C(=O)c1cccc2ccccc12 (centres undefined) . Return the value.
3.04

Protein farnesyltransferase (Homo sapiens, UniProt P49354+P49356) / log10(IC50) / CC(=O)N1Cc2cc(Br)ccc2N(Cc2cnc[nH]2)CC1Cc1cccc2ccccc12 (centres undefined) : value?
1.74

Protein farnesyltransferase (Homo sapiens, UniProt P49354+P49356) / log10(IC50) / CS(=O)(=O)N1Cc2cc(-c3ccncc3)ccc2N(Cc2c[nH]cn2)C[C@H]1Cc1ccccc1 : value?
1.20
